- experiment_notes: Dissolution capacity of diluents/solvents for Dioxacarb and Arprocarb
- Type: physicochemical
- study_conditions: at 20° C; solute Dioxacarb
Is Dissolution capacity for DIOXACARB at least 4 weight %? Then class 1. If not, class 0.

>>> cat("CCCCOC(=O)c1ccccc1C(=O)OCCCC [Dibutylphthalate]")
"class 0"
>>> cat("CCCCCO")
"class 0"
>>> cat("CC(C)O")
"class 1"
>>> cat("CCCCOCCOCCOCCCC")
"class 0"
>>> cat("CCCC(=O)OCC [Ethylbutyrate]")
"class 1"
>>> cat("C[N+](=O)[O-]")
"class 1"
>>> cat("CC(Cl)(Cl)Cl")
"class 0"
>>> cat("CCCCCCCC/C=C/CCCCCCCC(=O)CCCCCCC/C=C/CCCCCCCC")
"class 0"
>>> cat("CCOCCOCCOC(C)Oc1ccc2c(c1)OCO2 (stereo not drawn)")
"class 0"
>>> cat("CCCCCCCCCCCCCCCCCl")
"class 0"
>>> cat("CO")
"class 1"
>>> cat("CCCC(=O)OC [Methylbutyrate]")
"class 1"

====

- experiment_notes: Dissolution capacity of diluents/solvents for Dioxacarb and Arprocarb
- Assay type: physicochemical
Readings of Dissolving capacity for Dioxacarb for the listed compounds
parameter: Dissolving capacity for Dioxacarb

>>> val("CC(C)=O")
"28%"
>>> val("CCO")
"8%"
>>> val("c1ccccc1")
"3%"
>>> val("ClC(Cl)Cl")
"34%"
>>> val("ClCCl")
"45%"

====

Readings of Dissolution capacity for ARPROCARB for the listed molecules
- experiment_notes: Dissolution capacity of diluents/solvents for Dioxacarb and Arprocarb
- Type: physicochemical
- study_conditions: at 20° C; solute Arprocarb
parameter: Dissolution capacity for ARPROCARB (weight %)

>>> val("CCCCCCC [Heptane]")
0.3
>>> val("CC(C)O [Isopropanol]")
30
>>> val("COCCOC(C)=O [2-Methoxyethyl acetate]")
33
>>> val("CCCCC(CC)COC(=O)CCCCC(=O)OCC(CC)CCCC (centres unmarked) [Di(2-ethylhexyl)adipate)]")
2.8
>>> val("CCCCCCCCCCCCCC(=O)OC(C)C [Isopropylmyristate]")
1.3
>>> val("COC(C)=O [Methylacetate]")
41
>>> val("CCCCCCCCCCCCCCCCCl [1-Chlorohexadecane]")
0.4
>>> val("CCCCCC [Hexane]")
0.3
>>> val("C1CCOC1 [Tetrahydrofuran]")
50
>>> val("CCCCCCCCOC(=O)c1ccccc1C(=O)OCCCCCCCC [Dioctylphthalate]")
2.6
>>> val("CCOCCOCCOC(C)Oc1ccc2c(c1)OCO2 (centres unmarked) [T.U.O.B.]")
5.0

====

- experiment_notes: Dissolution capacity of diluents/solvents for Dioxacarb and Arprocarb
- Assay type: physicochemical
- study_conditions: at 20° C; solute Dioxacarb
Is Dissolution capacity for DIOXACARB at least 1 weight %? Then satisfied. If not, not satisfied.

>>> cat("COCCOC(C)=O [2-Methoxyethyl acetate]")
"satisfied"
>>> cat("CCCCCCCC/C=C\\CCCCCCCC(=O)O")
"satisfied"
>>> cat("CCC(N)(CO)CO")
"satisfied"
>>> cat("OCC(O)CO")
"not satisfied"
>>> cat("CCCCCCCCCCCCCCCC")
"not satisfied"
>>> cat("CCC(=O)OC [Methylpropionate]")
"satisfied"
>>> cat("CCCCCCCCCCCCCC(=O)OC(C)C [Isopropylmyristate]")
"not satisfied"
>>> cat("CCCCCl")
"satisfied"
>>> cat("CCCCCCCC(=O)O")
"satisfied"
>>> cat("CCCCCCCCCCCCO")
"not satisfied"
>>> cat("COC(C)=O [Methylacetate]")
"satisfied"
>>> cat("CCCCC(CC)COC(=O)CCCCC(=O)OCC(CC)CCCC (stereo not drawn) [Di(2-ethylhexyl)adipate)]")
"satisfied"

Data provenance: patent US4067990A
